biological target: T1, PD-1-His (UniProt Q15116 25-167, limits assumed); assay: competition ELISA: antibody premixed with 4 ug/mL PD1-His, added to coated PDL1-Fc, bound PD1-His detected with anti-His-HRP
T1 construct: also called antigen PD-1-His; not shown: His tag
T1 sequence (Q15116 25-167 limits assumed): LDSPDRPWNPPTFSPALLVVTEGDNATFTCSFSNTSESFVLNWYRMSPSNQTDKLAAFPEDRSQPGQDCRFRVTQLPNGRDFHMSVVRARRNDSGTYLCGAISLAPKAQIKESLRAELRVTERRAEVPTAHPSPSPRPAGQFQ
Listing of recorded IC50 (read off the curve) by entry.

Request: Respond only with IC50 (read off the curve) recorded for DFPD1-11 full-length anti-PD-1 monoclonal antibody (antibody, human IgG4 S228P, kappa, V domains shown, Expressed in HEK293E cells and purified on protein A) VH: QVQLVESGGGVVQPGRSLRLDCKASGITFSNNGMHWVRQAPGKGLEWVAVIWYDSSRKYYADSVKGRFTISRDNSKNTLFLQMNSLRAEDTAVYYCATNNDYWGQGTLVTVSS VL: DIQMTQSPSSLSASVGDRVTITCRASQSIHNYLDWYQQKPGKAPKLLIYNASTRATGVPSRFSGSGSGTDFTLTISSLQPEDFATYYCQQELHLPLTFGQGTKVEIKR
Response: ~0.07 mg/L

Request: Respond only with IC50 (read off the curve) recorded for DFPD1-10 full-length anti-PD-1 monoclonal antibody (antibody, human IgG4 S228P, kappa, V domains shown, Expressed in HEK293E cells and purified on protein A) VH: QVQLVESGGGVVQPGRSLRLDCKASGITFSNYGMHWVRQAPGKGLEWVAVIWYDSSRKYYADSVKGRFTISRDNSKNTLFLQMNSLRAEDTAVYYCATNNDYWGQGTLVTVSS VL: DIQMTQSPSSLSASVGDRVTITCRASQSVSNYLDWYQQKPGKAPKLLIYDASTRATGVPSRFSGSGSGTDFTLTISSLQPEDFATYYCQQNMQLPLTFGQGTKVEIKR
Response: ~0.1 mg/L

***
Request: Respond only with IC50 (read off the curve) recorded for DFPD1-13 full-length anti-PD-1 monoclonal antibody (antibody, human IgG4 S228P, kappa, V domains shown, Expressed in HEK293E cells and purified on protein A) VH: QVQLVESGGGVVQPGRSLRLDCKASGITFSNNGMHWVRQAPGKGLEWVAVIWYDSSRKYYADSVKGRFTISRDNSKNTLFLQMNSLRAEDTAVYYCATNNDYWGQGTLVTVSS VL: DIQMTQSPSSLSASVGDRVTITCRASQSVSNYLDWYQQKPGKAPKLLIYDASTRATGVPSRFSGSGSGTDFTLTISSLQPEDFATYYCQQNMQLPLTFGQGTKVEIKR
Response: ~0.08 mg/L

Request: Respond only with IC50 (read off the curve) recorded for DFPD1-9 full-length anti-PD-1 monoclonal antibody (antibody, human IgG4 S228P, kappa, V domains shown, Expressed in HEK293E cells and purified on protein A) VH: QVQLVESGGGVVQPGRSLRLDCKASGITFSNYGMHWVRQAPGKGLEWVAVIWYDSSRKYYADSVKGRFTISRDNSKNTLFLQMNSLRAEDTAVYYCATNNDYWGQGTLVTVSS VL: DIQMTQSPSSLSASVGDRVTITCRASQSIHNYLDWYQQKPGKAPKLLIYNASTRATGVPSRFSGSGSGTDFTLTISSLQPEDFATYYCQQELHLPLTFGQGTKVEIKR
Response: ~0.1 mg/L
